This collection of values is drawn from ChEMBL document CHEMBL2375282.

target_or_test_system: Macrophage migration inhibitory factor (Homo sapiens)
Sequence (P14174 whole entry): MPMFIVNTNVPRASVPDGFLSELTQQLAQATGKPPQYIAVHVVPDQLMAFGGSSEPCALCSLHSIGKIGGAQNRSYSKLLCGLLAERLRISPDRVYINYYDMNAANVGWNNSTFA
assay_name: Binding affinity to human recombinant MIF expressed in Escherichia coli BL21(DE3) by isothermal titration calorimetric assay
quantity_measured: pKd
Remember the convention: pKd equals -log10 of concentration in molar.

The molecule CC1=C[C@]2(C)/C=C(C)/C=C/C[C@@H](O)/C=C3C=C/C(=C4\C(=O)O[C@]2(C[C@@H]1C)C4=O)OC/3 showed pKd equal to 4.44
